tested on: Rattus norvegicus; test: Hepatotoxicity in Wistar albino rat assessed as change in serum AST level at 0.5 mg/kg/day, ip administered for 5 days measured after second compound dose; settings: in vivo, 120 h
assayMetric: AST (U/L)
Provide only the numeric value, understood in U/L.

O=c1oc2ccccc2c(O)c1-c1csc(Nc2cccc([N+](=O)[O-])c2)n1
210.7
Cc1cccc(Nc2nc(-c3c(O)c4ccccc4oc3=O)cs2)c1
175.5
O=c1oc2ccccc2c(O)c1-c1csc(Nc2ccc(S(=O)(=O)O)cc2)n1
207.5

Now for the compound whose AST we want.
Ask: GET /values?readout=AST&item= CCOC(=O)C(C(=O)OCC)=C(C)c1c(O)c2ccccc2oc1=O
Reply: 209.9
